Values were extracted from paper PMC2597349.

# test_system: UniProt P21453
# Sequence (P21453 whole entry): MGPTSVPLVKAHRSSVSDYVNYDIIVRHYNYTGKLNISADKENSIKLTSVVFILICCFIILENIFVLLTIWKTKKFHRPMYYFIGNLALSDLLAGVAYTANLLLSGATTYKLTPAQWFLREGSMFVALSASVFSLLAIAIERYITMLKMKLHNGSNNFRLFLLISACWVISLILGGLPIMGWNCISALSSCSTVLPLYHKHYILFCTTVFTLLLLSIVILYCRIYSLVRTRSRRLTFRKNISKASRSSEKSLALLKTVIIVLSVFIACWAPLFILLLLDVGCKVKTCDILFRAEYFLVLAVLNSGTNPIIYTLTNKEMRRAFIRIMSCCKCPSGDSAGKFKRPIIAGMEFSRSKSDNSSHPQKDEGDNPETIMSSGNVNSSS
# assay_summary: Intact cell S1P1 phosphorylation
recorded_metric: EC50

Qu. Query (compound): CCCCCCCCCCCCC/C=C/[C@@H](O)[C@@H](N)COP(=O)(O)O [Compound S1P, Sphingosine 1-phosphate] ; field requested: EC50
Ans. 5 nM

###

# test_system: S1P3 (Homo sapiens, UniProt Q99500)
# Sequence (Q99500 whole entry): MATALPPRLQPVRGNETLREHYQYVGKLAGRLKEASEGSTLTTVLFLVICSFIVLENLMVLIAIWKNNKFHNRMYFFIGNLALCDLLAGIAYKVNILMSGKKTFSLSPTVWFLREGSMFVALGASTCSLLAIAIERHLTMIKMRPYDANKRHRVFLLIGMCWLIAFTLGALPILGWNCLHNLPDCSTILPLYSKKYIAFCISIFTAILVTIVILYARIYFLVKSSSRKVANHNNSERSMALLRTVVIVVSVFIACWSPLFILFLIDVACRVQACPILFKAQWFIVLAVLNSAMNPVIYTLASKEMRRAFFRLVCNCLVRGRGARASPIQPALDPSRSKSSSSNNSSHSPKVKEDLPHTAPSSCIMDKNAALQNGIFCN
# assay_summary: S1P3-gα16-NFAT-bla reporter assay
# Type: cell-based
# study_conditions: EC50 S1P3, agonist
recorded_metric: pEC50
Please report pEC50 as the negative decimal logarithm of the molar concentration, giving only the number.

Qu. What is its pEC50 for S1P3 (Homo sapiens, UniProt Q99500)? Entry: `CCOc1ccc(-c2nc(-c3ccncc3)no2)cc1OCC`
Ans. 6.26
